Test system: PPARg:RXRa IVT, anti-PPARg (NR concentration 270 nM, RXRa partner concentration 90 nM)
assay.notes: PBM binding z-score (relative to random genomic background probes); higher = stronger binding; sequences stand for … in GC…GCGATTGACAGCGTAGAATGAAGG
readout: PBM binding z-score

- CTCGAAAGTTCGGTTGAGGTGAGTATACGGATAA: 0.288
- ACTTACGGGTCAACCAGGTTATAGCACGCGTATA: 4.21
- ATCTCTACGTAAAGATAGTTCAGTGAATGCAAAT: 0.188
- ATCGAAAGGTCGTGGTGAGTATAGAGAAAGGGAA: 2.12
- CTACCAAGGTGAACAAGGTCGTTCATTACTATTC: 2.99
- TCAGACAGCTGAAGGTAACTCAGGTACGCAGTCG: -0.656
- TGTCAAAGTTCAAAGGGAACGTAAGTATCCACAC: 3.95
- CCGACTGGGGCATATGGTTACCATAAGCCAGCCC: 2.21
- CGTCCAAGGACAAAGGTCAGTGAAGAGATGACGG: 2.78
- ACTAGCAGGCCAAGTTTGCGTCACTCAAACAAAG: 0.225
- TCAGACAGGTGAAGGTAACTTAGGTACGCAGTCG: 1.37
- TTACCAAGGTGAAAGGGCGTTGATGCACGCCTTG: 3.87

###

Tested on: RXRa homodimer (NR concentration 180 nM)
assay.notes: PBM binding z-score (relative to random genomic background probes); higher = stronger binding; sequences stand for … in GC…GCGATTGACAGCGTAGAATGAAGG
readout: PBM binding z-score

- GCGACTGGGGCATCAGCAGGTTACCATAACTTAA: 0.462
- AATACAGGGTCATCGTAGCCCAGAGTACGCACAG: 6.57
- CTTACTGGGCCACGAAAGGTCATTGATTCAGTGA: 5.84
- CCTAGCAGGCCTGGGTCACTCAAGCATTTCGCTT: 0.958
- TCGAGTAGGTTACCAATGGGGCATGCAGCTTTCT: 0.609
- TCACCAAGGTGAGCTGAGGTCGTTGATCCAACTC: 1.28
- TCAGACAGGTGAAGGTGACTCAGGTACGCAGTCG: 0.995
- GATACAGGTTCAAGGCCAGAGTACGCGTATTGAT: 2.13
- TAGCCTAGGTCATGGGCCAGCATACCACGCGAAC: 3.28
- TATACAGGGTCAAGGGCCAGAGTACGAATGTCGA: 6.23
- GCTCGTAGGACAAGGTCAGAGCTTTGTCCGTAGA: 2.55
- CCTCGGAGGACAGAAGGTCTGAGCTGTCCGCTTT: -0.825
- GCTAGCAGGCAATTTGGGTCACTCAATGACGGGC: 0.683
- CCTACTGTGCCACGAAAGGTCATTGATTCAGTGA: 4.76
- TCTCGCAGGCCAGAGGGTCACTCAAGAGGTACGG: 2.76
- ATCTCTAGGTAACCAGGTTCAGTGAATGCCGAAC: 0.776
- TCGAGTAGGTTAGTCGGGGCATTGAGCCAACATA: -0.18
- ACTTACGGGTCACCGAGGTTATAGCACGCGTATA: 7.33
- AGTCAAAGTTCAGGACGAGGTAACGTAGAGCACG: 3.06
- GAGACTGGGGCATCAGCAGGTTACCATAACTTAA: 0.509
- TAGCCTAGCTCATGGGCCAGTATACCACGCGAAC: -0.408
- TGTCTAAGTTCAAAGGTAACGTAAGTATCCACAC: 5.62
- CAAACTAGGTCAAGAGGTCGAAGTCCGCTTCCCG: 5.59
- TCTTGTAGTTCAAAGGTTAAGAAAGCCGAAGCCT: 6.78
- CGTCCAAGGCCAGCAGGTCAGTGAAAGCGACGTG: 0.648
- CGTCAAAGTTCGACTAAGGTAACGTAAAGCACGC: 1.5
- ACTAGCAGGCCAAGTTAGGGTCACTCAAACAAAG: 3.35
- ATCTCTAGGTAACAAGTTCTGTGAAAGAGAGGAC: 0.105
- TCATATAGGTAAAGCTGAAAGTCGAACGATATGA: 0.587
- TCTTGTAGACCAAAGGTTAAGAAAGCCGAAGCCT: 2.54
- GATACAGGGTCAGCTAGAGGCCAGGGTATGGAAA: 4.38
- CCTGCCAGGTCAATGGTCAGCTAAAGCAGCTCGC: 2.57
- TTCCCAAGGTGAAGGTCGTTGATCCCTCTGTAGA: 1.74
- ATATGTAGGTTATCGGGTCATGCAGTTTGCGCAT: 3.76
- CCTAGCAGGCCAATCTGGGGCACTCAAGGCTTGA: -0.29
- CGAACTAGGTCAAGGACAGTGGATCTCCGCACGC: 2.41
- TAGCCTAGGTCATGCGGGCCAGTAGAGTGTCGGC: 3.5
- TTACAAAGGTGAAGGTCGTTGATCCCTCTGTAGA: 3.13
- CCTCGGAGGACAGAAAGTCAGAGCTGTCCGCTTT: -0.788
- GCGACTGGGGCATCCGCAGGTTACCATAACTTAA: 0.41
- CCTTACGGGACACGAGGTTATAGCACGACGAGCG: 1.19
- ACTATTAGTTGAGAGGAGGGCAACCGATAGGTTG: 0.396
- GCTAGTTGGTCAGTAAAAGTTCACACACCGGTCG: 1.82
- ACAGACAGGTGAGTGAAGATAACTCAGCTGGACG: 0.111
- ATCGAAAGGTCGATGGTGAGTATACCCACCCGAA: 3.21
- TCTAGTAGATCAAAGGTTAAGAAAGCCGAAGCCT: 3.04
- TCGGACAGGTGAAGGTAACTCAGGTACGCAGTCG: 0.653
- ACTAGTTGGTCAGCTGAAGTCACACACAATTCGG: 0.297
- ACTATTAGTTGAGGCGAGGGCAACCGATAGGTTG: 0.386
- GCTGCTACGTCAACTGATGGTCAGCTAAAGCTCG: -0.367
- TCTAGTTGGTCACGGAGGTTACACACGACGGGTA: 2.16

Each recorded value in this set is attributed to the supplement of paper PMC6555819.
